Target: Cytochrome P450 2C19 (Homo sapiens)
Test: Cytochrome panel assay with activity outcomes; for activity, negative = inhibition: % is set by controls: 0 for no effect and ±100 for the full control effect
Details: recombinant CYP, pro-luciferin dealkylation, luminescence, p450-cyp2c19; series mostly up to 57.1 µM
The whole screen tested about 16,000 compounds, of which about 5,800 (36%) were called active. Roughly 23% stayed inconclusive and do not appear here. The list shows a part of the results.
measured-metric: activity, negative = inhibition

What the record says about `COC(=O)[C@@H]1[C@@H]2C[C@H]3c4[nH]c5ccccc5c4CCN3C[C@@H]2CC[C@@H]1OS(=O)(=O)O` : activity, negative = inhibition is -2.78% [at 11.4 µM] (inactive)

What the record says about `Oc1ccc(Cc2nccc3cc(O)c(O)cc23)cc1O` : activity, negative = inhibition is -17.6% [at 11.4 µM] (inactive)

What the record says about `CC(C)[C@@H](OCc1ccccc1)[C@H](C)/C=N\OC[C@@H](O)[C@@H]1O[C@@H]2OC(C)(C)O[C@@H]2[C@H]1O` : activity, negative = inhibition is -18.3% [at 11.4 µM] (inactive)

What the record says about `CN(C)Cc1ccc(O)c(CN(C)C)n1` : activity, negative = inhibition is -0.0983% [at 11.4 µM] (inactive)

---

Target: Cytochrome P450 2C19 (Homo sapiens) (UniProt P33261)
Sequence (P33261 whole entry, looked up): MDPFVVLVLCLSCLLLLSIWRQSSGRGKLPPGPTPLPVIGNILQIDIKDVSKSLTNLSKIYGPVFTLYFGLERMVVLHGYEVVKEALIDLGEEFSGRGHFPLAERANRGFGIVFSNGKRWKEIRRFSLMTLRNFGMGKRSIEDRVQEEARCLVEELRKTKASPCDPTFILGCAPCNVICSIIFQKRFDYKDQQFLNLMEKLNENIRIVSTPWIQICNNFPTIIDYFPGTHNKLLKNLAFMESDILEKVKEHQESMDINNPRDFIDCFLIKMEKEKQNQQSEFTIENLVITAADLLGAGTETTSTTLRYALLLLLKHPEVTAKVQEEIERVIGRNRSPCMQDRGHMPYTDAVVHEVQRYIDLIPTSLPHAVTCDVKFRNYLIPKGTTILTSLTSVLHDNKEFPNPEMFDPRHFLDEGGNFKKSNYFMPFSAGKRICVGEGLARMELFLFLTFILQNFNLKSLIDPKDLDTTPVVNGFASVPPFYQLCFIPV
Experiment: Cytochrome panel assay with activity outcomes
Details: recombinant CYP, pro-luciferin dealkylation, luminescence, p450-cyp2c19; series mostly up to 57.1 µM
Screen size: about 16,000 compounds; about 5,800 (36%) were called active. Inconclusive results (about 23%) are left out. The call rests on the fitted dose curve; in most records, active means well fitted curve in the direction sought with a large enough effect; inconclusive means small, poorly fitted or top-dose-only effect, or effect the other way; inactive means no such curve, though single readings can be large or run the other way. Some of the results follow.
Can you answer with just one of these options? active, inactive

Query: What did the test return for `Cn1c(=O)c2[nH]c(C3CCCC3)nc2n(C)c1=O` ?
Result: inactive

Query: What did the test return for `Cc1cccc(NC(=O)C2(c3ccc([N+](=O)[O-])cc3)CCCC2)c1` ?
Result: active

Query: What did the test return for `CCN(CC)CCOC(=O)C1(c2ccc([N+](=O)[O-])cc2)CCCC1` ?
Result: inactive

Query: What did the test return for Cc1cc(C)c(S(=O)(=O)N2CCN(c3ccc([N+](=O)[O-])c(NCC4CCCO4)c3)CC2)c(C)c1 (centres undefined) ?
Result: active

Query: What did the test return for Cc1cccc(NC(=O)C23CCC(C)(C2Br)C3(C)C)c1 (centres undefined) ?
Result: active

Query: What did the test return for CCOC(=O)C1=C(N)n2c(s/c(=C/c3ccccc3)c2=O)=C(C(=O)OCC)C1c1ccccc1 (centres undefined) ?
Result: inactive

Query: What did the test return for `NC(=NCc1ccccc1)NC(=O)c1nc(Cl)c(N)nc1N` ?
Result: inactive

Query: What did the test return for Cc1cccc(NC(=O)C2(c3ccccc3)CC2(Cl)Cl)c1 (centres undefined) ?
Result: active

Query: What did the test return for Cc1ccc(C(=O)N2CCN(C3c4cccc5cccc(c45)C3NS(=O)(=O)c3ccccc3)CC2)cc1 (centres undefined) ?
Result: active

Query: What did the test return for `FC(F)(F)c1nnc2c(Sc3ccccc3)nc3ccc(Cl)cc3n12` ?
Result: active

Query: What did the test return for `COc1ncc2nc(-c3ccc(F)cc3)c(=O)n(C)c2n1` ?
Result: inactive

Query: What did the test return for `FC(F)(F)c1nnc2c(Sc3ccc(Cl)cc3)nc3ccccc3n12` ?
Result: inactive

Query: What did the test return for `COCC(=O)N1CCC2(CCCN(Cc3ccccc3OC)C2)CC1` ?
Result: inactive

Query: What did the test return for CCOC(=O)C1=C(c2ccccc2)N=c2s/c(=C\c3ccco3)c(=O)n2C1c1cccs1 (centres undefined) ?
Result: active

---

Molecular target: Cytochrome P450 2C19 (Homo sapiens)
Assay: Cytochrome panel assay with activity outcomes
Conditions: recombinant CYP, pro-luciferin dealkylation, luminescence, p450-cyp2c19; series mostly up to 57.1 µM
In all, about 16,000 compounds went through this assay and about 5,800 (36%) were called active. Another 23% or so got no clear call; they are omitted. Calls come from the whole dose curve; as a rule, active = well fitted curve in the direction sought with a large enough effect; inconclusive = small, poorly fitted or top-dose-only effect, or effect the other way; inactive = no such curve, though single readings can be large or run the other way. Some of the results follow.
Can you answer with just one of these options? active, inactive

Query: What did the test return for `CCO/C(C)=N/n1c2nc3ccccc3nc2c2c(=O)n(CC(C)C)c(C)nc21` ?
Result: inactive

Query: What did the test return for `CN(Cc1ccco1)c1ccnc(-c2cccnc2)n1` ?
Result: active

Query: What did the test return for `C/C(=N\NC(=O)COc1ccc([N+](=O)[O-])cc1)C(C)(C)C` ?
Result: inactive

Query: What did the test return for `O=C(c1cnccn1)N1CCC[C@@]2(CCN(Cc3cc(C(F)(F)F)cc(C(F)(F)F)c3)C2)C1` ?
Result: inactive

Query: What did the test return for `CCOc1[nH]n(-c2ccccc2)c(=O)c1C=Nc1ccc(Cl)cc1` ?
Result: active

---

Target: Cytochrome P450 2C19 (Homo sapiens)
Test: Cytochrome panel assay with activity outcomes; for activity, negative = inhibition: % is set by controls: 0 for no effect and ±100 for the full control effect
Conditions: recombinant CYP, pro-luciferin dealkylation, luminescence, p450-cyp2c19; series mostly up to 57.1 µM
Description: The P450 gene superfamily is involved in the metabolism and clearance of xenobiotics. This assay used various human CYP P450 isozymes to measure the dealkylation of various pro-luciferin substrates to luciferin. The luciferin is then measured by luminescence after the addition of a luciferase detection reagent. […] Inhibitors and some substrates limit the production of luciferin, and decrease measured luminescence. […] 8, Detection, 1 sec, ViewLux luminescent read […]
The whole screen tested about 16,000 compounds, of which about 5,800 (36%) were called active. Inconclusive results (about 23%) are left out. The list shows a part of the results.
Exercise: state measured activity, negative = inhibition for each of the molecules provided.

What the record says about `CCCNC(=O)OC[C@@H]1O[C@H](CCO/N=C(\C)CCN2CCc3nc(CC)c(CC)cc3C2)C=C[C@@H]1Oc1ccc(OC)cc1` : activity, negative = inhibition is -24.5% [at 11.4 µM] (inactive)

What the record says about `OCCNc1ncnc2c1ncn2[C@@H]1O[C@@H](CO)[C@H](O)[C@@H]1O` : activity, negative = inhibition is 32.5% [at 11.4 µM] (inactive)

What the record says about `O=C1Nc2ccccc2C1=Nc1ccc(S(=O)(=O)Nc2nccs2)cc1` : activity, negative = inhibition is 21.4% [at 11.4 µM] (inactive)

What the record says about `Cc1cccc(C(=O)O)c1C[C@H]1NCC[C@H]2c3ccccc3N[C@@H]12` : activity, negative = inhibition is 3.69% [at 11.4 µM] (inactive)

What the record says about `O=C1CCCC=C1[C@@H](O)COCc1ccccc1` : activity, negative = inhibition is -32.2% [at 11.4 µM] (inactive)

What the record says about `CC(=O)N[C@H](Cc1ccc(O)cc1)C(=O)O` : activity, negative = inhibition is -9.65% [at 11.4 µM] (inactive)

What the record says about `CNS(=O)(=O)c1ccccc1C(=N)c1ccccc1` : activity, negative = inhibition is -10% [at 11.4 µM] (inactive)

What the record says about `Cc1ccc(-[n+]2cc(=O)o[nH]2)cc1` : activity, negative = inhibition is -19.9% [at 11.4 µM] (inactive)

What the record says about `S=C(S)NCCN1CCNCC1` : activity, negative = inhibition is -11.3% [at 11.4 µM] (inactive)

What the record says about `O[C@H](COc1ccccc1)CN1CCCCC1` : activity, negative = inhibition is 3.88% [at 11.4 µM] (inactive)

What the record says about `Cc1nc(CN2CCCCC2)c(O)c(=O)[nH]1` : activity, negative = inhibition is -22.5% [at 11.4 µM] (inactive)

What the record says about `Cc1c(Cl)c(S(N)(=O)=O)cc2c1=NC=NS=2(=O)O` : activity, negative = inhibition is 8.1% [at 11.4 µM] (inactive)

What the record says about `Cc1ccc(-c2nnc(-c3ccc4ccccc4c3)o2)cc1` : activity, negative = inhibition is 10.3% [at 11.4 µM] (inactive)

What the record says about `NS(=O)(=O)c1ccc(N=C2C(=O)Nc3ccccc32)cc1` : activity, negative = inhibition is -2.67% [at 11.4 µM] (inactive)

What the record says about `CN1CCC(n2[nH]c(-c3ccccc3)c(Cc3ccccc3)c2=O)CC1` : activity, negative = inhibition is -29.5% [at 11.4 µM] (inactive)

What the record says about `O=C(Nc1c[nH]c(=O)[nH]c1=O)Oc1ccccc1` : activity, negative = inhibition is -12.9% [at 11.4 µM] (inactive)

What the record says about `C#CCCCO/N=C1/C[C@@H](O)[C@@H](O)[C@@H]2[C@@H]3C(=O)N(CC)C(=O)[C@H]3CC[C@H]12` : activity, negative = inhibition is -28.1% [at 11.4 µM] (inactive)

What the record says about `CC(=O)OC[C@@H]1O[C@@H](O/N=C2/C[C@@H](O)[C@@H](O)[C@@H]3[C@@H]4C(=O)N(C5CCCCC5)C(=O)[C@H]4CC[C@H]23)[C@H](OC(C)=O)[C@H](OC(C)=O)[C@@H]1OC(C)=O` : activity, negative = inhibition is 9.71% [at 11.4 µM] (inactive)

What the record says about `CC(C)(C)N1C(=O)[C@H]2[C@@H]3[C@H](O)C=CC(=O)[C@H]3CC[C@H]2C1=O` : activity, negative = inhibition is 23.7% [at 11.4 µM] (inactive)

What the record says about `Fc1cccc(F)c1C(Nc1nncs1)Nc1nncs1` : activity, negative = inhibition is 7.56% [at 11.4 µM] (inactive)

What the record says about `CC(C)(C)N1C(=O)[C@H]2[C@H]3[C@H](O)[C@H](O)C/C(=N/NC(=O)OCc4ccccc4)[C@@H]3CC[C@@H]2C1=O` : activity, negative = inhibition is 6.74% [at 11.4 µM] (inactive)

What the record says about `CO[C@@H]1COC(=O)C/C=C\[C@@H](C)[C@@H]2C=C[C@H](O)[C@@H](COC(=O)CCC[C@H]1C)O2` : activity, negative = inhibition is -8.99% [at 11.4 µM] (inactive)

What the record says about `CCOC(=O)N/N=C1/C[C@@H](O)[C@@H](O)[C@@H]2[C@@H]3C(=O)N(c4cccc(Oc5ccccc5)c4)C(=O)[C@H]3CC[C@H]12` : activity, negative = inhibition is 42.4% [at 11.4 µM] (inactive)

What the record says about `NCCNS(=O)(=O)c1ccc(N)cc1` : activity, negative = inhibition is -4.78% [at 11.4 µM] (inactive)

What the record says about `NC(=O)NC(=O)[C@H]1CCCC[C@@H]1C(=O)O` : activity, negative = inhibition is 12.1% [at 11.4 µM] (inactive)

What the record says about `CCOC(=O)C[C@@H](C(=O)OCC)[C@@H]1CCCCC1=O` : activity, negative = inhibition is -32.2% [at 11.4 µM] (inactive)

What the record says about `CC[C@@]12CCCN3CCc4c(n(c5ccccc45)C(=O)C1)[C@H]32` : activity, negative = inhibition is -19.6% [at 11.4 µM] (inactive)
